Test: Binary supramolecular self-assembly systems of polymer and target: guest concentration over incubation time (Comparative Example 2)
Type: physicochemical
Conditions: binary system with 0.5% polymer 106; incubation 3 h
Decision: Concentration of the target in the solution measured after different incubation time >= 60 µg/mL yields yes (1), all other cases yield no (0).

Is Concentration of the target in the solution measured after different incubation time for CCOC(=O)C1=C(C)NC(C)=C(C(=O)OC)C1c1cccc(Cl)c1Cl (centres unmarked) at or above 60 µg/mL?
no (0)

Form field: Concentration of the target in the solution measured after different incubation time at least 60 µg/mL? Entry: Cc1ccc(-c2cc(C(F)(F)F)nn2-c2ccc(S(N)(=O)=O)cc2)cc1
no (0)

Kindly determine if Concentration of the target in the solution measured after different incubation time recorded for CCOc1nc2cccc(C(=O)OC(C)OC(=O)OC3CCCCC3)c2n1Cc1ccc(-c2ccccc2-c2nnn[nH]2)cc1 (centres unmarked) is above or exactly 60 µg/mL.
no (0)

Hello, I need to know if CCCNS(=O)(=O)Nc1ncnc(OCCOc2ncc(Br)cn2)c1-c1ccc(Br)cc1 has measured Concentration of the target in the solution measured after different incubation time not below 60 µg/mL. Thanks!
no (0)

Does the compound CCc1cc2c(cc1N1CCC(N3CCOCC3)CC1)C(C)(C)c1[nH]c3cc(C#N)ccc3c1C2=O have recorded Concentration of the target in the solution measured after different incubation time that is 60 µg/mL or more?
no (0)

Decide: is the reported value of Concentration of the target in the solution measured after different incubation time for O=C1C[C@@H](c2ccc(O)cc2)Oc2cc(O)cc(O)c21 equal to or greater than 60 µg/mL?
yes (1)

Hi, just wondering whether CNC(=O)c1cc(Oc2ccc(NC(=O)Nc3ccc(Cl)c(C(F)(F)F)c3)cc2)ccn1 shows Concentration of the target in the solution measured after different incubation time of 60 µg/mL or higher.
yes (1)

In plain terms: is recorded Concentration of the target in the solution measured after different incubation time at least 60 µg/mL for CCCCC1OC(=O)c2ccccc21 (centres unmarked) [Butylphthalide] ?
yes (1)

// inclusive: Concentration of the target in the solution measured after different incubation time at least 60 µg/mL? input: CC1(C)CCC(CN2CCN(c3ccc(C(=O)NS(=O)(=O)c4ccc(NCC5CCOCC5)c([N+](=O)[O-])c4)c(Oc4cnc5[nH]ccc5c4)c3)CC2)=C(c2ccc(Cl)cc2)C1
yes (1)

Does CNC(=O)c1ccc(N2C(=S)N(c3ccc(C#N)c(C(F)(F)F)c3)C(=O)C2(C)C)cc1F [Enzalutamide] have a reported Concentration of the target in the solution measured after different incubation time of at least 60 µg/mL?
yes (1)

Determine whether measured Concentration of the target in the solution measured after different incubation time meets or exceeds 60 µg/mL for C=CC(=O)N1CCC[C@@H](n2nc(-c3ccc(Oc4ccccc4)cc3)c3c(N)ncnc32)C1
yes (1)

Hi team, for COC1=CC(=O)C[C@@H](C)[C@]12Oc1c(Cl)c(OC)cc(OC)c1C2=O , is the recorded Concentration of the target in the solution measured after different incubation time at or above 60 µg/mL?
yes (1)

# check: Concentration of the target in the solution measured after different incubation time of CCC(C)n1ncn(-c2ccc(N3CCN(c4ccc(OCC5COC(Cn6cncn6)(c6ccc(Cl)cc6Cl)O5)cc4)CC3)cc2)c1=O (centres unmarked) is greater than or equal to 60 µg/mL
no (0)

Evaluate O=C1[C@@H]2[C@H]3CC[C@H](C3)[C@@H]2C(=O)N1C[C@@H]1CCCC[C@H]1CN1CCN(c2nsc3ccccc23)CC1 : Concentration of the target in the solution measured after different incubation time at minimum 60 µg/mL?
no (0)
